Test system: HCT-8/MDR1(PTX) cells
Conditions: MDR1(PTX) cells, after selection by PTX
Where a name gives a salt, the structure may show the parent alone.
Measured TC50 by item
Only the number, expressed in µM, is required.

Examples with their reported TC50 follow.
### Prompt Please tell me the measured TC50 for CC[C@]1(O)C[C@H]2CN(CCc3c([nH]c4ccccc34)[C@@](C(=O)OC)(c3cc4c(cc3OC)N(C=O)[C@H]3[C@@](O)(C(=O)OC)[C@H](OC(C)=O)[C@]5(CC)C=CCN6CC[C@]43[C@@H]65)C2)C1 [Vincristine, Vincristine sulphate] ; system: HCT-8/MDR1(PTX) cells.
### Response 21.51

### Prompt Given O=C1c2c(O)ccc(O)c2C(=O)c2c(NCCNCCO)ccc(NCCNCCO)c21 [Mitoxantrone, Mitoxantrone 2HCl] , report its TC50 on HCT-8/MDR1(PTX) cells.
### Response 11.21

### Prompt Please respond with reported TC50 (system HCT-8/MDR1(PTX) cells) for COc1cccc2c1C(=O)c1c(O)c3c(c(O)c1C2=O)C[C@@](O)(C(C)=O)C[C@@H]3O[C@H]1C[C@H](N)[C@H](O)[C@H](C)O1 [Daunorubicin, Daunorubicin HCl] .
### Response 10.23

Further cases:
### Prompt Given CC(=O)Oc1ccccc1C(=O)Nc1ncc([N+](=O)[O-])s1 [Nitazoxanide] , report its TC50 on HCT-8/MDR1(PTX) cells.
### Response 25.59

### Prompt For HCT-8/MDR1(PTX) cells, give the measured TC50 of the entry CC(=O)O[C@H]1C(=O)[C@@]2(C)[C@H]([C@H](OC(=O)c3ccccc3)[C@]3(O)C[C@H](OC(=O)[C@H](O)[C@@H](NC(=O)c4ccccc4)c4ccccc4)C(C)=C1C3(C)C)[C@]1(OC(C)=O)CO[C@@H]1C[C@@H]2O
### Response 45.86

* * *

Tested on: HCT-8/MDR1 cells
Assay: MTS cytotoxicity (drug tolerance) assay
Details: MDR1 cells, no drug selection; MTS assay
Where a name gives a salt, the structure may show the parent alone.
assay.metric: TC50 (µM)
Numbers only here, please. The scale is µM.

Before answering, review these 3 worked examples.
### Prompt Write down TC50 measured for item CC(=O)O[C@H]1C(=O)[C@@]2(C)[C@H]([C@H](OC(=O)c3ccccc3)[C@]3(O)C[C@H](OC(=O)[C@H](O)[C@@H](NC(=O)c4ccccc4)c4ccccc4)C(C)=C1C3(C)C)[C@]1(OC(C)=O)CO[C@@H]1C[C@@H]2O
### Response 20.22

### Prompt Indicate its recorded TC50; the molecule in question is COc1cccc2c1C(=O)c1c(O)c3c(c(O)c1C2=O)C[C@@](O)(C(C)=O)C[C@@H]3O[C@H]1C[C@H](N)[C@H](O)[C@H](C)O1 [Daunorubicin, Daunorubicin HCl]
### Response 3.95

### Prompt Please give measured TC50 of the following entry: COc1cccc2c1C(=O)c1c(O)c3c(c(O)c1C2=O)C[C@@](O)(C(=O)CO)C[C@@H]3O[C@H]1C[C@H](N)[C@H](O)[C@H](C)O1 [Doxorubicin, Doxorubicin HCl]
### Response 6.67

Further cases:
### Prompt Specify measured TC50 for O=C1c2c(O)ccc(O)c2C(=O)c2c(NCCNCCO)ccc(NCCNCCO)c21 [Mitoxantrone, Mitoxantrone 2HCl] .
### Response 6.79

### Prompt For the molecule CN(C)C(=O)C(CCN1CCC(O)(c2ccc(Cl)cc2)CC1)(c1ccccc1)c1ccccc1 [Loperamide, Loperamide HCl] , give its reported TC50.
### Response 16.49

* * *

Test system: Cryptosporidium parvum
Test: Anti-cryptosporidial efficacy assay (44-h infection/qRT-PCR)
Settings: at EC40; MDR1(PTX) vs. NC model; Eq 3 and 4
Where a name gives a salt, the structure may show the parent alone.
The reader will find reported Eoff, proportion of off-parasite-target effect values listed item by item below.
// return the numeric value with its unit appended

Example molecules with recorded Eoff, proportion of off-parasite-target effect:
### Prompt Give the reported value of Eoff, proportion of off-parasite-target effect for this record: CC(=O)O[C@H]1C(=O)[C@@]2(C)[C@H]([C@H](OC(=O)c3ccccc3)[C@]3(O)C[C@H](OC(=O)[C@H](O)[C@@H](NC(=O)c4ccccc4)c4ccccc4)C(C)=C1C3(C)C)[C@]1(OC(C)=O)CO[C@@H]1C[C@@H]2O
### Response -2.10%

### Prompt Give the reported Eoff, proportion of off-parasite-target effect for this molecule. CC[C@]1(O)C[C@H]2CN(CCc3c([nH]c4ccccc34)[C@@](C(=O)OC)(c3cc4c(cc3OC)N(C=O)[C@H]3[C@@](O)(C(=O)OC)[C@H](OC(C)=O)[C@]5(CC)C=CCN6CC[C@]43[C@@H]65)C2)C1 [Vincristine, Vincristine sulphate]
### Response 37.80%

### Prompt For COc1cccc2c1C(=O)c1c(O)c3c(c(O)c1C2=O)C[C@@](O)(C(=O)CO)C[C@@H]3O[C@H]1C[C@H](N)[C@H](O)[C@H](C)O1 [Doxorubicin, Doxorubicin HCl] , write its Eoff, proportion of off-parasite-target effect.
### Response 41.30%

Now consider a different molecule.
### Prompt Determine from records and report Eoff, proportion of off-parasite-target effect for O=C1c2c(O)ccc(O)c2C(=O)c2c(NCCNCCO)ccc(NCCNCCO)c21 [Mitoxantrone, Mitoxantrone 2HCl]
### Response 56.10%
